target: Serine/threonine-protein kinase 3 (Homo sapiens) (UniProt Q13188); conditions: at 1 µM;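 note: each value is the mean inhibition of MST2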
Sequence (Q13188 whole entry): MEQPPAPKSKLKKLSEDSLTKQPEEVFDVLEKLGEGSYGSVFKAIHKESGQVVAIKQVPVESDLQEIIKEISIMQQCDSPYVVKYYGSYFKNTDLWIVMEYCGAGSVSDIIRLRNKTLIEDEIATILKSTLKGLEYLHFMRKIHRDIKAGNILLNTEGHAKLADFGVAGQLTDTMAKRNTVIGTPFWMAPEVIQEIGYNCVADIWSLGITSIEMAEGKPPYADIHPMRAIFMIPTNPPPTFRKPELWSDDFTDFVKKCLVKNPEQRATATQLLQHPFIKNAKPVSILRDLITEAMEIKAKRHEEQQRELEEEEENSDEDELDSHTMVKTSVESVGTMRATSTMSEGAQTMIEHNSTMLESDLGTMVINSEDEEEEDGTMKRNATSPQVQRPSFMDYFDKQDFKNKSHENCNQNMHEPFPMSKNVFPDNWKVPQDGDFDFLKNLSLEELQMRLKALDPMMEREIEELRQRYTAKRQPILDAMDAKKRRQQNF
Mark rule met for reported inhibition of 8% or greater; mark rule not met for anything smaller.

A selection of reference data follows.
* COC(=O)Nc1nc2ccc(Oc3ccc(NC(=O)Nc4cccc(Cl)c4)cc3)cc2[nH]1 | rule not met
* COc1cc(N2CCN(C(C)C)CC2)ccc1Nc1nc(Nc2ccc(F)cc2C(N)=O)c2cc[nH]c2n1 | rule met
* c1ccc(COc2ccc(Nc3ncnc4ccc(-c5ccco5)cc34)cc2)cc1 | rule not met

Request: Please indicate if the recorded inhibition for NS(=O)(=O)c1ccc(N/N=C2\C(=O)Nc3ccc4ncccc4c32)cc1 meets or exceeds 8%.
Response: rule met

Request: Please indicate if the recorded inhibition for CCN(CC)S(=O)(=O)c1ccc(OC)c(Nc2ncc(-c3ccccc3)o2)c1 meets or exceeds 8%.
Response: rule met

====

biological target: Receptor-type tyrosine-protein kinase FLT3 (Homo sapiens) (UniProt P36888); conditions: at 1 µM
Sequence (P36888 whole entry): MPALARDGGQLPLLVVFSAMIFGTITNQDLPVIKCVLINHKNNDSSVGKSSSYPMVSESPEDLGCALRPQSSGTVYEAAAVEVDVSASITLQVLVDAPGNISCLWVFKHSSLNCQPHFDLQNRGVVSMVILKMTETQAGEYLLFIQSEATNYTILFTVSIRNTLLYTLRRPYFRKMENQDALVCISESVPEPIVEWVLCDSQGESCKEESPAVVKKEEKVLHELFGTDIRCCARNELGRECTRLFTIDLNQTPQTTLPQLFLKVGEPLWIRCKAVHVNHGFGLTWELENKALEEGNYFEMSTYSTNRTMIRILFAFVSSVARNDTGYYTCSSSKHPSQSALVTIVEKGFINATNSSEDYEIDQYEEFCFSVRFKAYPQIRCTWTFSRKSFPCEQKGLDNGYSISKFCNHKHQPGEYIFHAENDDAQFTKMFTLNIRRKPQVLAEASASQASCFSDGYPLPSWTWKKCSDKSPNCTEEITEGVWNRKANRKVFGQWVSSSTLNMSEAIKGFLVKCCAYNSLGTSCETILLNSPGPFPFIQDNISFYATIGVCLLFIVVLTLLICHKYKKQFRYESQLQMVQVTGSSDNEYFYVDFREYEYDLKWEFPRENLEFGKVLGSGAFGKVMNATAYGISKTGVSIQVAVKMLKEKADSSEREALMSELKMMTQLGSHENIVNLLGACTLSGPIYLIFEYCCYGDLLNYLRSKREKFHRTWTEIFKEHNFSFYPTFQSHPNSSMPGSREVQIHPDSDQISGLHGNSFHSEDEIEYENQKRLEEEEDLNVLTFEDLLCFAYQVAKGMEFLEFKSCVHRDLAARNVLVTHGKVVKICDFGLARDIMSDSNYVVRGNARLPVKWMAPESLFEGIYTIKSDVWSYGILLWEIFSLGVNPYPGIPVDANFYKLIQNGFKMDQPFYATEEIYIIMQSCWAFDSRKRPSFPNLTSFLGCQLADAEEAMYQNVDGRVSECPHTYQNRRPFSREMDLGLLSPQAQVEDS
I'd appreciate it if you could supply inhibition values for the items below.
Give bare numbers, in %.

Here is how some molecules turned out for inhibition.
- CN(C)CCOc1ccc(-c2nc(-c3ccncc3)c(-c3ccc4c(c3)CC/C4=N\O)[nH]2)cc1: 2.62
- COC(=O)c1sc(-n2cnc3cc(OC)c(OC)cc32)cc1OCc1ccccc1C(F)(F)F: 8.27
- COc1cc(/C=N/Nc2ncnc3[nH]ncc23)ccc1O: 17.4
- COC(=O)Nc1nc2ccc(Oc3ccc(NC(=O)Nc4cccc(Cl)c4)cc3)cc2[nH]1: 57.2

Turning to the following molecule.
Request: // output inhibition; input CCn1c(-c2nonc2N)nc2cnc(Oc3cccc(NC(=O)c4ccc(N(C)C)cc4)c3)cc21 ; system Receptor-type tyrosine-protein kinase FLT3 (Homo sapiens) (UniProt P36888);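 note: values are mean percent inhibition of FLT3 kinase activity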
Response: 1.09

====

I'd appreciate it if you could supply inhibition values for the items below.
molecular target: Serine/threonine-protein kinase MRCK alpha (Homo sapiens); settings: at 0.1 µM;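 note: each inhibition figure is a mean value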
Give bare numbers, in %.

Here is how some compounds turned out for inhibition.
- COc1cc(/C=N/Nc2ncnc3[nH]ncc23)ccc1O: 0.11
- CCn1c(-c2nonc2N)nc2cnc(Oc3cccc(NC(=O)c4ccc(N(C)C)cc4)c3)cc21: 7.29
- Clc1ccc(-c2nn3ncccc3c2-c2ccnc(Nc3ccccc3)n2)cc1: -0.06
- CCCN1CCC(c2ccc(Nc3nc(Nc4cc(F)ccc4C(N)=O)c4cc[nH]c4n3)c(OC)c2)CC1: 2.45
- COc1ccc(-c2cc(-c3c[nH]nc3-c3ccccn3)ccn2)cc1: -0.6

// each compound listed below needs its inhibition
1. CCN(CC)S(=O)(=O)c1ccc(OC)c(Nc2ncc(-c3ccccc3)o2)c1
2. CCn1cc(-c2ccnc3[nH]ccc23)c(-c2cccc(NC(=O)Nc3ccc(OCc4ccccc4)cc3)c2)n1
3. COc1cc2c(cc1Nc1nc(Nc3ccsc3C(N)=O)c3cc[nH]c3n1)N(C(=O)CN(C)C)CCC2(C)C
4. NS(=O)(=O)c1ccc(N/N=C2\C(=O)Nc3ccc4ncccc4c32)cc1

Response:
[1.92, -4.2, 2.48, 1.68]

====

molecular target: Macrophage colony-stimulating factor 1 receptor (Homo sapiens); details: at 1 µM;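 note: mean inhibition of FMS, from the GSK PKIS screening set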
MEASURED PROPERTY: inhibition (%)
Answers are plain numbers, in %.

Here is how some molecules turned out for inhibition.
- CCCN(CCS(C)(=O)=O)Cc1ccc(-c2ccc3ncnc(Nc4ccc(OCc5cccc(F)c5)c(Cl)c4)c3c2)o1: 1
- CCn1c(-c2nonc2N)nc2ccccc21: 2.71

// each molecule listed below needs its inhibition
1. COC(=O)Nc1nc2ccc(S(=O)(=O)c3ccc(NC(=O)Nc4cc(C(F)(F)F)ccc4F)cc3)cc2[nH]1
2. FC(F)(F)c1cccc(-c2nn3ncccc3c2-c2ccnc(Nc3ccc4c(c3)OCCO4)n2)c1
3. Fc1cccc(COc2ccc(Nc3ncnc4sc(-c5ccco5)cc34)cc2Cl)c1

Response:
[2.06, 7.02, 8.62]

====

I'd appreciate it if you could supply inhibition values for the items below.
target: Serine/threonine-protein kinase pim-3 (Homo sapiens) (UniProt Q86V86); details: at 1 µM
Description: GSK_PKIS: PIM3 mean inhibition at 1 uM [Nanosyn]
One number for each entry, in %.

Here is how some compounds turned out for inhibition.
* CN(C)CCOc1ccc(-c2nc(-c3ccncc3)c(-c3ccc4c(c3)CC/C4=N\O)[nH]2)cc1 | 2.58
* Nc1ncc(-c2cccc(S(N)(=O)=O)c2)c2scc(-c3ccc(F)c(Cl)c3)c12 | 0.91
* COc1cc(N2CCN(C(C)C)CC2)ccc1Nc1nc(Nc2ccc(F)cc2C(N)=O)c2cc[nH]c2n1 | 19.9
* CCc1nn2ncccc2c1-c1ccnc(NC2CC2)n1 | 4.22
* CCN(CC)S(=O)(=O)c1ccc(OC)c(Nc2ncc(-c3ccccc3)o2)c1 | 3.12
* COC(=O)Nc1nc2ccc(Oc3ccc(NC(=O)Nc4cccc(Cl)c4)cc3)cc2[nH]1 | -1.87

// each compound listed below needs its inhibition
1. CCn1c(-c2nonc2N)nc2c(C#CC(C)(C)O)ncc(OC3CCNCC3)c21
2. CN1CCC(n2cnc(-c3ccc(F)cc3)c2-c2ccnc(N)n2)CC1
3. CNC(=O)c1cc(-c2ccc(F)cc2)cc(-c2ccc(S(=O)(=O)N3CCCC3)cc2)c1N
4. COC(=O)c1sc(-n2cnc3cc(OC)c(OC)cc32)cc1OCc1ccccc1C(F)(F)F
5. Fc1ccc(-c2nn3ccccc3c2-c2ccncc2)cc1
6. Fc1ccc(-c2cc(-c3c[nH]nc3-c3ccccn3)ccn2)cc1

Response:
1. 23.8
2. 21.3
3. -0.11
4. -2.84
5. -1.43
6. 1.85

// each compound listed below needs its inhibition
1. CCn1cc(-c2ccnc3[nH]ccc23)c(-c2cccc(NC(=O)Nc3ccc(OCc4ccccc4)cc3)c2)n1
2. N#Cc1c(NC(=O)c2ccc(F)cc2)sc2c1CCCC2
3. [O-][S+]1CCN(Cc2ccc(-c3ccc4ncnc(Nc5ccc(OCc6cccc(F)c6)c(Cl)c5)c4c3)o2)CC1
4. COc1ccc(-c2nn3ncccc3c2-c2ccnc(Nc3ccc4c(c3)OCCO4)n2)cc1
5. COc1cc2c(cc1Nc1nc(Nc3ccsc3C(N)=O)c3cc[nH]c3n1)N(C(=O)CN(C)C)CCC2(C)C
6. COc1cc(/C=N/Nc2ncnc3[nH]ncc23)ccc1O
7. COc1cc2ncn(-c3cc(OCc4ccccc4C(F)(F)F)c(C(=O)N(C)C)s3)c2cc1OC

Response:
1. -1.13
2. 1.6
3. 1.34
4. 2.15
5. 68.1
6. 21.5
7. 0.56

Request: Tell me inhibition reported for COc1ccc(-c2cc3c(N)ncnc3o2)cc1
Response: 6.86

====

biological target: Serine/threonine-protein kinase pim-3 (Homo sapiens) (UniProt Q86V86); conditions: at 0.1 µM
MEASURED PROPERTY: inhibition
Please answer in the form of a number followed by its unit of measurement.

* COc1ccc(-c2cc3c(N)ncnc3o2)cc1 | 1.44%
* COc1cc2ncn(-c3cc(OCc4ccccc4C(F)(F)F)c(C(=O)N(C)C)s3)c2cc1OC | -0.34%
* Fc1ccc(-c2cc(-c3c[nH]nc3-c3ccccn3)ccn2)cc1 | -0.42%

// each compound listed below needs its inhibition
1. Nc1nc(-c2cccc(Cl)c2)c(-c2ccc3ncccc3n2)s1
2. NS(=O)(=O)c1ccc(N/N=C2\C(=O)Nc3ccc4ncccc4c32)cc1

Response:
1. 1.25%
2. 1.09%

// each compound listed below needs its inhibition
1. N#Cc1c(NC(=O)c2ccc(F)cc2)sc2c1CCCC2
2. COc1cc2c(cc1Nc1nc(Nc3ccsc3C(N)=O)c3cc[nH]c3n1)N(C(=O)CN(C)C)CCC2(C)C
3. Fc1ccc(-c2nn3ccccc3c2-c2ccncc2)cc1
4. CS(=O)(=O)CCNCc1ccc(-c2ccc3ncnc(Nc4ccc(OCc5ccccc5)c(C(F)(F)F)c4)c3c2)o1
5. CCn1c(-c2nonc2N)nc2cnc(Oc3cccc(NC(=O)c4ccc(N(C)C)cc4)c3)cc21
6. Fc1cccc(COc2ccc(Nc3ncnc4sc(-c5ccco5)cc34)cc2Cl)c1

Response:
1: 0.71%; 2: 18.4%; 3: -0.94%; 4: -1.28%; 5: -0.12%; 6: -1.54%

// each compound listed below needs its inhibition
1. CCOc1ccc2c(-c3ccnc(Nc4cccc(C(F)(F)F)c4)n3)cnn2n1
2. COc1ccc(-c2cc(-c3c[nH]nc3-c3ccccn3)ccn2)cc1

Response:
1. -1.1%
2. 0.79%

====

test system: Epidermal growth factor receptor (Homo sapiens), P00533 [L861Q]; details: at 0.1 µM
Sequence (P00533 whole entry L861Q): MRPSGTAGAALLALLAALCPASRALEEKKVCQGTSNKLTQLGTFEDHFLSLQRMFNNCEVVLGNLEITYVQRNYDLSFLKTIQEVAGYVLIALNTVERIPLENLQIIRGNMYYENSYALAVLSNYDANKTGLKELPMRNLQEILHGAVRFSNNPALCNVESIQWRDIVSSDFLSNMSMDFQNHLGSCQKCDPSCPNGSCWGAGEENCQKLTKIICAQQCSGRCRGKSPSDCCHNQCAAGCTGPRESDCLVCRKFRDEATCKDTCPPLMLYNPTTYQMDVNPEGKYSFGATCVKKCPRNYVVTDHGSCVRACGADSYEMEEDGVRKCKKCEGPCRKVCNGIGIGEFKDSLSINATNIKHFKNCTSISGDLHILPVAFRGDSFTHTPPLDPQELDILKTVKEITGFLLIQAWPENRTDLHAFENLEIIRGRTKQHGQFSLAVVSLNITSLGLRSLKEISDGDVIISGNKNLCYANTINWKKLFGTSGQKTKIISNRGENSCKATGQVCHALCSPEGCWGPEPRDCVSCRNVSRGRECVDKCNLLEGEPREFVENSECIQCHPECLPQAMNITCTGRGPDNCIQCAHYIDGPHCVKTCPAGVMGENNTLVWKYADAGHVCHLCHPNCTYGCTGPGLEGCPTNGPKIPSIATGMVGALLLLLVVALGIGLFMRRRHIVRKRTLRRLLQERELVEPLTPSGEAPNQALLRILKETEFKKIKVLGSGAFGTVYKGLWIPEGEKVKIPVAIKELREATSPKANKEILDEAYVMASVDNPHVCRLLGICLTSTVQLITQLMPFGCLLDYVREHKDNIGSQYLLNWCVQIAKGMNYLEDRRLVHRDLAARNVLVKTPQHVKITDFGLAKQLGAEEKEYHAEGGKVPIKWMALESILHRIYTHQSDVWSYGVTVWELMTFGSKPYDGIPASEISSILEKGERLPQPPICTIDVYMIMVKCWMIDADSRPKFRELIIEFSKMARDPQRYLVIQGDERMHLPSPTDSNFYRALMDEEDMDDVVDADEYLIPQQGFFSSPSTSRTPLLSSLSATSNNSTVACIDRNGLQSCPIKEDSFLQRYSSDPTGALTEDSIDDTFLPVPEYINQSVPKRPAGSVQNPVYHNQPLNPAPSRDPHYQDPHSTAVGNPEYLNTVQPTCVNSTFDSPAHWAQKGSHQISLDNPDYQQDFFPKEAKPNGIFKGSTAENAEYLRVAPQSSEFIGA
MEASURED PROPERTY: inhibition (%)
Answers are plain numbers, in %.

Here is how some compounds turned out for inhibition.
- COc1ccc(CNC(=O)c2ccc(-c3cc(-c4nnc(C)o4)ccc3C)cc2)cc1: 1.79
- [O-][S+]1CCN(Cc2ccc(-c3ccc4ncnc(Nc5ccc(OCc6cccc(F)c6)c(Cl)c5)c4c3)o2)CC1: 77.5
- CS(=O)(=O)CCNCc1ccc(-c2ccc3ncnc(Nc4ccc(OCc5ccccc5)c(C(F)(F)F)c4)c3c2)o1: 17.8
- Nc1nc(-c2ccc(F)cc2)c(-c2ccc3ncccc3n2)s1: 6.11
- NC(=O)c1sc(-n2cnc3ccc(C(F)(F)F)cc32)cc1OCc1ccccc1Br: 4.73

// each compound listed below needs its inhibition
1. CCn1c(-c2nonc2N)nc2c(C#CC(C)(C)O)nc(OC[C@H](N)c3ccccc3)cc21
2. Nc1ncc(-c2cccc(S(N)(=O)=O)c2)c2scc(-c3ccc(F)c(Cl)c3)c12
3. CCn1c(-c2nonc2N)nc2cnc(Oc3cccc(NC(=O)c4ccc(N(C)C)cc4)c3)cc21

Response:
1. -0.13
2. 5.17
3. 1.12

Request: Tell me inhibition reported for CCCN1CCC(c2ccc(Nc3nc(Nc4cc(F)ccc4C(N)=O)c4cc[nH]c4n3)c(OC)c2)CC1
Response: 6.31
